Molecular target: Endoribonuclease toxin MazF (Escherichia coli K-12)
Sequence (P0AE70 whole entry): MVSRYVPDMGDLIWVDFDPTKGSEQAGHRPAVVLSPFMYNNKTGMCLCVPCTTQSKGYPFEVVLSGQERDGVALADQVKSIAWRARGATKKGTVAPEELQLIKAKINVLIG
Test: activation of MazEF endoribonuclease cleavage – biochemical, fluorescence, single-stranded RNA substrate, uHTS hits, dose response (AID 588481)
Type: functional
The source made the active and inactive calls.
Labels: active, inactive

>>> group("O=C(N/N=C/c1cccnc1)c1ccc(NC(=O)C(c2ccccc2)c2ccccc2)cc1")
"inactive"
>>> group("NC(=O)c1c(NC(=O)C2COc3ccccc3O2)sc2c1CCN(Cc1ccccc1)C2 (stereo unspecified)")
"active"
>>> group("C/C(=N\\NS(=O)(=O)c1ccc([N+](=O)[O-])cc1)c1c[nH]c2ccccc12")
"active"
>>> group("Oc1ccc(/C=N/NC(=S)Nc2cccnc2)c(O)c1O")
"inactive"
>>> group("Cc1ccc(C(=O)Oc2cc(N)n(S(=O)(=O)c3ccc(F)cc3)n2)cc1")
"active"
>>> group("COc1cc2[nH]c(=O)n(Cc3ccc(C(=O)NC4CCCC4)cc3)c(=O)c2cc1OC")
"inactive"

====

Tested on: INS1
Assay: INS-1E survival protection against cytokine death – cell-based, luminescence, retest, dose response (AID 449756);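 also: cell death triggered by IL-1 beta plus TNF-alpha plus IFN-gamma mixture; protective hits raise ATP signal compared with cytokine alone wells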
Format: functional
Details: Rattus norvegicus
The source made the active and inactive calls.
Overview of recorded AC50 for various compounds
Endpoint Name: AC50

>>> result("O=C(OCn1ncc(Br)c(Br)c1=O)c1ccc(F)cc1")
"4.94 µM (active)"
>>> result("Cc1ccc(S(=O)(=O)N2CCOCC2)cc1C(=O)Nc1nc(-c2ccccn2)cs1")
"2.19 µM (active)"
>>> result("CS(=O)(=O)c1ncc(Cl)c(C(=O)Nc2ccc(OC(F)F)cc2)n1")
"8.07 µM (active)"
>>> result("CC(C)C[C@H]1CN=C(Nc2ccccc2)N1CC1CCC(C(C)(C)C)CC1 (stereo partly specified)")
"6.54 µM (active)"
>>> result("COc1ccc(/C=C/C(=O)c2ccc([N+](=O)[O-])o2)cc1")
"6.75 µM (active)"
>>> result("N#Cc1ccc(C(=O)Nc2nc(-c3cccs3)c(C(=O)C(F)(F)F)s2)cc1")
"4.75 µM (active)"

====

Molecular target: Aminopeptidase N (Plasmodium falciparum FcB1/Columbia, UniProt O96935)
Sequence (O96935 whole entry): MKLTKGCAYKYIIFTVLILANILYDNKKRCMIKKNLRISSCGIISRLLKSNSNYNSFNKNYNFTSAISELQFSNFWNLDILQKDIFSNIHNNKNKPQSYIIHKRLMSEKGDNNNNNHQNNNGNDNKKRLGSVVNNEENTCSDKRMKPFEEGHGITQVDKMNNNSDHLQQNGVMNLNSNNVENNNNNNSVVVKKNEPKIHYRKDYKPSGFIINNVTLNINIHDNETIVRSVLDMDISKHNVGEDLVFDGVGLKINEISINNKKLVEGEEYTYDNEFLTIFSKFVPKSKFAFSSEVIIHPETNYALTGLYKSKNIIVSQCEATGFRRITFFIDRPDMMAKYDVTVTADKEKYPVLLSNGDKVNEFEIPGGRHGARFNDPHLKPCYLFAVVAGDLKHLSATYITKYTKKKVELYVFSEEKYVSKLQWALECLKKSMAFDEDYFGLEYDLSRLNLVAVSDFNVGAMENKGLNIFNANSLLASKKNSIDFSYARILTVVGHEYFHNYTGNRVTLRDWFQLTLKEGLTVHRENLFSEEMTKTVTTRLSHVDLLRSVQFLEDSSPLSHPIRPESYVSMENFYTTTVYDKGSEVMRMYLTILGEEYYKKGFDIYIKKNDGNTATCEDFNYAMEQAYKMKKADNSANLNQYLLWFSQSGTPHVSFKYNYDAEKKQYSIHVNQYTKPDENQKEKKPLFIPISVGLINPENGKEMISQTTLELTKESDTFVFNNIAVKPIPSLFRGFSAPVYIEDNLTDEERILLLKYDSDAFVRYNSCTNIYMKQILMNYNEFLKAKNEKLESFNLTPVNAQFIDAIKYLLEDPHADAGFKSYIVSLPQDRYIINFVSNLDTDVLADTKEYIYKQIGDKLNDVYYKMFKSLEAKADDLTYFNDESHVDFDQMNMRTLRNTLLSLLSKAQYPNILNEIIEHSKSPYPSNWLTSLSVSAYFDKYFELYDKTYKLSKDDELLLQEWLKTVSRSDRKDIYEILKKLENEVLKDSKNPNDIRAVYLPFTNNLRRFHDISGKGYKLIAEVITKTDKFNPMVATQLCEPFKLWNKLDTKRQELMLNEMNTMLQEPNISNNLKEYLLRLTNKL
Test: malaria alanyl aminopeptidase activity blockers – biochemical, fluorogenic H-Leu-NHMec substrate, 1536-well (AID 1445)
Design: species or system Plasmodium falciparum 3D7, 3D7
Calls of active or inactive are those of the source.
Endpoint Name: IC50

>>> result("O=C1NC(=O)N(Cc2ccccc2)C(=O)/C1=C/NNC(=O)c1ccccc1O")
"17.3 µM (active)"
>>> result("Cc1ccc(S(=O)(=O)NC2=NC(=O)/C(=C/c3ccccc3)S2)cc1")
"69.2 µM (active)"
>>> result("O=C1CC(c2ccco2)CC(O)=C1/C=N/c1cc(Cl)ccc1O (stereo unspecified)")
"5.58 µM (active)"
>>> result("O=C1Nc2ccc(F)cc2C12Nc1ccccc1-c1nnc(SCc3ccccc3F)nc1O2 (stereo unspecified)")
"68.4 µM (active)"
>>> result("COc1ccccc1-c1nc2ccccc2c(=O)n1NC(=O)c1cccs1")
"15.8 µM (active)"
>>> result("Cc1sc2nc3c(SC(C)C(=O)O)cc(C(=O)c4ccccc4O)cn3c(=O)c2c1C (stereo unspecified)")
"57.8 µM (active)"

====

Molecular target: Eukaryotic translation initiation factor 4E (Mus musculus)
Sequence (P63073 whole entry): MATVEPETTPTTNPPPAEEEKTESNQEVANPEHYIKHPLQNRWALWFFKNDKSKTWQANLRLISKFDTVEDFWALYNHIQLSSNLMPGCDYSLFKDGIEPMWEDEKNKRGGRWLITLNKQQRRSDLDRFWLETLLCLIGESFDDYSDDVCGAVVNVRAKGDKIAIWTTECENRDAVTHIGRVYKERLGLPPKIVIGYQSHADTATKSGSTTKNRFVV
Assay: blockers of eIF4G binding by eIF4E – biochemical, TR-FRET, dose response (AID 855);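 also: potency for disrupting eIF4E binding to eIF4GI seen as loss of FRET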
Format: functional
Activity calls are given as the source filed them.
// values below are reported IC50
Endpoint Name: IC50

>>> result("N#C/C(=N\\Nc1ccc(Cl)cc1)C(=O)c1ccccc1")
"> 64 µM (inactive)"
>>> result("CC1(C)Cc2c(sc3nc(NCCN4CCOCC4)n4ncnc4c23)CO1")
"> 64 µM (inactive)"
>>> result("Cc1ccc(NC(=O)CN2C(=O)S/C(=C/c3ccc(O)c([N+](=O)[O-])c3)C2=O)cc1C")
"50 µM (inactive)"
>>> result("CC(C)CC(=O)N1CCC(N2CCN(c3ccccc3)CC2)CC1")
"> 64 µM (inactive)"

====

Parameter EC50: see the listing below.
Biological target: Peroxisome proliferator-activated receptor gamma/Nuclear receptor coactivator 2 (Homo sapiens, UniProt P37231)
Sequence (P37231 whole entry): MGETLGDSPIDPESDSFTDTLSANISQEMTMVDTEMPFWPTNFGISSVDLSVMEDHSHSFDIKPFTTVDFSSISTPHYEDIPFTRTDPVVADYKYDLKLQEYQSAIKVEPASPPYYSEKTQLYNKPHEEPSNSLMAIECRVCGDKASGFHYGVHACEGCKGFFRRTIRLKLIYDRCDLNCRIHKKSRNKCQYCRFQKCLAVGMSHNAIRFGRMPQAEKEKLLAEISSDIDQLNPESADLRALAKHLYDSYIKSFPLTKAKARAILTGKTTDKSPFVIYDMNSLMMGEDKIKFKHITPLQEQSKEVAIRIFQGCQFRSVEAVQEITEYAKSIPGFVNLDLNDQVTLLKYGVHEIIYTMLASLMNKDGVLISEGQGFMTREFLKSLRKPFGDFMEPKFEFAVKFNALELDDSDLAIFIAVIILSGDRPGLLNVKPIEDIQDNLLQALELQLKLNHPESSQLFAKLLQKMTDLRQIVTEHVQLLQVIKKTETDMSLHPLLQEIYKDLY
Sequence (Q15596 whole entry, further chain): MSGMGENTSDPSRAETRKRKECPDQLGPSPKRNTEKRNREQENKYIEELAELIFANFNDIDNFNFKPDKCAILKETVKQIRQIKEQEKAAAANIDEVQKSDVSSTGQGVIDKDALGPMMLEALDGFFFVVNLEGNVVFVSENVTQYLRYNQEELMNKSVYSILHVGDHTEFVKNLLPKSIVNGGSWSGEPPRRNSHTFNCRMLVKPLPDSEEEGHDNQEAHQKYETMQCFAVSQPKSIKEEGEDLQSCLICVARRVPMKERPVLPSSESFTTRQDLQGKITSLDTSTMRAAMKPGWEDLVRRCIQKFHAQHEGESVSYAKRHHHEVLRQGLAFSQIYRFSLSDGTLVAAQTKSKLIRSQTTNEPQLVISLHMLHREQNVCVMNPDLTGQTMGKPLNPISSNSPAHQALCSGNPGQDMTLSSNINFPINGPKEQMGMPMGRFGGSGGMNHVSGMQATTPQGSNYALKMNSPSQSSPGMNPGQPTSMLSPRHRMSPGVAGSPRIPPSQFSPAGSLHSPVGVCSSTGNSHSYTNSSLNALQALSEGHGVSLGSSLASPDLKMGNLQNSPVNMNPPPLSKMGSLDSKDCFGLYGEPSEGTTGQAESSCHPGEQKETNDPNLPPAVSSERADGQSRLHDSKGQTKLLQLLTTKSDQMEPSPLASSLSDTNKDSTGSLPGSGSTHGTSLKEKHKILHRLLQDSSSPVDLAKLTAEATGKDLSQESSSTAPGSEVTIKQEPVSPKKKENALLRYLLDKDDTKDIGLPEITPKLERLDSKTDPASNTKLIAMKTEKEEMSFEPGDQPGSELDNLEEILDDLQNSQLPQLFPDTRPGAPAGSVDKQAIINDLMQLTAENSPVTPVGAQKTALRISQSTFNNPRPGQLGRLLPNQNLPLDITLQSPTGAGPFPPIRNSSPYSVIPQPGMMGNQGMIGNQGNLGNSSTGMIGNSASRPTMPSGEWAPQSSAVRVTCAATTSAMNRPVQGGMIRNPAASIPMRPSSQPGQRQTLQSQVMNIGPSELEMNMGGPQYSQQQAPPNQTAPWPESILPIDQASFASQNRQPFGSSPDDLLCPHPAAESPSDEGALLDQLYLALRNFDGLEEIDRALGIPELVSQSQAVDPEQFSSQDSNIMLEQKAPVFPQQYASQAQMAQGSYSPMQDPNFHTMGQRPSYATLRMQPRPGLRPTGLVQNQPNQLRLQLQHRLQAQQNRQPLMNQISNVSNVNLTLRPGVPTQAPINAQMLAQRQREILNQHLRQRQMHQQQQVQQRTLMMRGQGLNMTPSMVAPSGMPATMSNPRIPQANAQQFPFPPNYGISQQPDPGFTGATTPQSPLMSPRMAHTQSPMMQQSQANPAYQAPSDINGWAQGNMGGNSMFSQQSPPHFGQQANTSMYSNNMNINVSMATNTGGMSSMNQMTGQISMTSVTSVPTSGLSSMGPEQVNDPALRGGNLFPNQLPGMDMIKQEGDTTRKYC
Assay: TR-FRET dose response biochemical High Throughput Screening assay for agonists of the steroid receptor coactivator 2 (SRC-2) recruitment by the peroxisome proliferator-activated receptor gamma (PPAR gamma): non-selective agonists. [Related pubchem assays: 1297, 1032 ]
Assay type: functional
Active and inactive are the calls of the source.
Endpoint Name: EC50

>>> result("O=C(Cc1cccs1)NCCSc1c(-c2ccc(Cl)cc2)[nH]c2ccccc12")
"15.6 µM (not active)"
>>> result("O=C(OCn1ncc(Br)c(Br)c1=O)c1ccc(F)cc1")
"72.3 µM (not active)"
>>> result("Fc1ccc(COc2cccc(-c3nnc(S)o3)c2)cc1")
"8.05 µM (active)"
>>> result("COC(=O)c1sccc1-c1ccc(/C=N/OC(=O)c2ccccc2)o1")
"12.7 µM (not active)"

====

Assay: non-specific 3'UTR reporter inhibition in Clone20-Shn3RL – cell-based, Renilla luciferase, cherry-picked, counter-screen for Shn3 inhibitor project, dose response (AID 624133)
Format: functional
Active and inactive are the calls of the source.
Endpoint Name: AC50

>>> result("Cc1cc(C)nc(SCC(=O)Nc2ccnc3ccccc23)n1")
"< 0.26 µM (active)"
>>> result("CS(=O)(=O)c1ncc(Cl)c(C(=O)Nc2ccc(OC(F)F)cc2)n1")
"7.27 µM (active)"
>>> result("CCc1nc(N2CCN(C(C)=O)CC2)c2c3c(sc2n1)CC(C(C)(C)C)CC3 (centres undefined)")
"11.3 µM (active)"
>>> result("COc1ccc(OC)c2sc(N(CCN(C)C)C(=O)/C=C/c3cccs3)nc12")
"25.8 µM (active)"

====

Biological target: SWI/SNF-related matrix-associated actin-dependent regulator of chromatin subfamily A member 2 (Homo sapiens, UniProt P51531)
Sequence (P51531 whole entry): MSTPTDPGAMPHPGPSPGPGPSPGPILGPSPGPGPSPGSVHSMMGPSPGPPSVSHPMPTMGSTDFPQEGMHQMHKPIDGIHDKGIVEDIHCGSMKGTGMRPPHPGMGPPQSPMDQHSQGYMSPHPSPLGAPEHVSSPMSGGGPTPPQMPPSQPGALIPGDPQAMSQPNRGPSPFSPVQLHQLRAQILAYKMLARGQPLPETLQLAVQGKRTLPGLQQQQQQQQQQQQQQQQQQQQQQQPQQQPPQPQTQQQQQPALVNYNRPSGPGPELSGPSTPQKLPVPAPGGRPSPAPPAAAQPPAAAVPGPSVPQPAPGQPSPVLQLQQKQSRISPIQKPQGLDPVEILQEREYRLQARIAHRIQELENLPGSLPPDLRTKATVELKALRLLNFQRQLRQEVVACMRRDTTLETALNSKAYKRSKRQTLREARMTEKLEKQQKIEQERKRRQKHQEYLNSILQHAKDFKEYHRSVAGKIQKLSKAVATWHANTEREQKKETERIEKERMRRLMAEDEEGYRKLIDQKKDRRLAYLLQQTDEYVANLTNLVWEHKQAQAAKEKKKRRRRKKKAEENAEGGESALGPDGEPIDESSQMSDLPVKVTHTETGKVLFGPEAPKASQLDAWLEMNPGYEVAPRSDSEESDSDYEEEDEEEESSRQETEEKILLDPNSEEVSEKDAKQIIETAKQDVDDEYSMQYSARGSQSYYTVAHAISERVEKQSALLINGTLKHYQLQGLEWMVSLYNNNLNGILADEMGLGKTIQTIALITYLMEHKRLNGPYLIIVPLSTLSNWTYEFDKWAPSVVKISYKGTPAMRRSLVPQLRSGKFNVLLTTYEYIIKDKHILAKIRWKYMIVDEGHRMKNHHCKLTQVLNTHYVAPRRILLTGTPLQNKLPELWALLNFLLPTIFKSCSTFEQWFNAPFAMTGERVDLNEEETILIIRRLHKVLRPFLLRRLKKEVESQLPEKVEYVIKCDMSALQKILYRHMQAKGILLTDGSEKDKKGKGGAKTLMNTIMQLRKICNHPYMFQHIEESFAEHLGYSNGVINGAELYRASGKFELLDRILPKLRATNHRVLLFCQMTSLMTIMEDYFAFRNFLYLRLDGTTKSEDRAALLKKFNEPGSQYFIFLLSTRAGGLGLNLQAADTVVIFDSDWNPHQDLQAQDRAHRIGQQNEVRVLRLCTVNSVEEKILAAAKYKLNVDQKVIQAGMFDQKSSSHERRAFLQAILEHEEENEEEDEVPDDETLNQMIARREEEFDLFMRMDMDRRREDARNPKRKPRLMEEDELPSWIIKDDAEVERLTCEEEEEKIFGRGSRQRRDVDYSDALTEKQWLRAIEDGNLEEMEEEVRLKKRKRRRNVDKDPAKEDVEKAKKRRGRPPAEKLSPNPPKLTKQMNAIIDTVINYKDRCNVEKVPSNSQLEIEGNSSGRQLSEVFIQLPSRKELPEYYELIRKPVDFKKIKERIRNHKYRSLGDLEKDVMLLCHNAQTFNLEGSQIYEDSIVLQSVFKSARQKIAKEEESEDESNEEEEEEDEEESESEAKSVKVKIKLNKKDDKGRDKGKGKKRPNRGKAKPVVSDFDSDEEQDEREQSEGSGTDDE
Experiment: Luminescence-based cell-based high throughput dose response assay to identify activators of the function of SWI/SNF related, matrix associated, actin dependent regulator of chromatin, subfamily a, member 2 (SMARCA2, BRM).
Type: functional
Active and inactive are the calls of the source.
# EC50 per record follows
Endpoint Name: EC50

>>> result("COc1ccc2nc3cc(Cl)ccc3c(Nc3ccc(O)c(CN4CCN(C)CC4)c3)c2c1")
"> 91.1 µM (inactive)"
>>> result("COc1ccc(OC)c2sc(N(CCN(C)C)C(=O)/C=C/c3cccs3)nc12")
"> 91.1 µM (inactive)"
>>> result("N#Cc1cn(C2OC(CO)C(O)C2O)c2ncnc(N)c12 (stereo not given)")
"> 91.2 µM (inactive)"
>>> result("O=C1CNC(=S)N1c1nc2ccccc2s1")
"> 91.2 µM (inactive)"
>>> result("Cc1ccc(C(=O)CNc2ccc(Cl)cc2)cc1")
"> 91.2 µM (inactive)"

====

EC50 values by entry
Biological target: Short transient receptor potential channel 4 (Mus musculus, UniProt Q9QUQ5)
Sequence (Q9QUQ5 whole entry): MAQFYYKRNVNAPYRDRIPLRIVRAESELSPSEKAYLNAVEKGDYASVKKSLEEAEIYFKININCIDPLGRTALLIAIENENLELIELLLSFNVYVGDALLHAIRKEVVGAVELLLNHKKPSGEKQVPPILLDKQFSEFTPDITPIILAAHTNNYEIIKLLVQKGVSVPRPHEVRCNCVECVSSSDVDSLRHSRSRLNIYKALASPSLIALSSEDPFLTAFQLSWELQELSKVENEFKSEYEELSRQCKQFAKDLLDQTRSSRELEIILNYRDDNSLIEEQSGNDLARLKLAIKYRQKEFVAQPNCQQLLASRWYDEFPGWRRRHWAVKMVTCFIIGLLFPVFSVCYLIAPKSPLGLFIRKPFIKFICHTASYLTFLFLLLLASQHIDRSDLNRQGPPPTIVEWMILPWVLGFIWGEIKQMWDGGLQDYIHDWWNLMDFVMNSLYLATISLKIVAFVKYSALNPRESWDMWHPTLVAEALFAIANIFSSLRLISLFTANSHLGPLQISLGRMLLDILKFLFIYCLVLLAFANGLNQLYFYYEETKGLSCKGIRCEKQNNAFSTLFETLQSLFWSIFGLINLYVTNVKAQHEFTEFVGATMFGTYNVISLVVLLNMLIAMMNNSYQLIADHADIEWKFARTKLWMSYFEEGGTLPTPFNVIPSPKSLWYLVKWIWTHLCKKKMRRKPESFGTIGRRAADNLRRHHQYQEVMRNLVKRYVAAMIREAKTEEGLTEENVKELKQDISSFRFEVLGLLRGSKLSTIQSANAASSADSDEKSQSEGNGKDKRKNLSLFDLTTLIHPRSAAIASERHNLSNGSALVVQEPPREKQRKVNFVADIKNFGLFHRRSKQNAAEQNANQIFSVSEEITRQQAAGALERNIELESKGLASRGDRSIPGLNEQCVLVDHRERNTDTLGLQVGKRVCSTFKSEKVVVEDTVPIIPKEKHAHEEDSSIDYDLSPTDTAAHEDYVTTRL
Assay: block of DAMGO-driven TRPC4 calcium entry – cell-based, HEK293 TRPC4/mu-opioid, Fluo-4 calcium, dose response (AID 434942);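 also: potency of inhibitors blocking the TRPC4 calcium response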
Type: functional
Calls of active or inactive are those of the source.
Endpoint Name: EC50

>>> result("Cc1ccccc1N(C(=O)c1snc(C(N)=O)c1N)C(C(=O)NC1CCCC1)c1ccco1 (centres undefined)")
"2990 nM (active)"
>>> result("CCOc1cc(CNC2CCCC2)cc(Cl)c1OCc1ccccc1")
"4220 nM (active)"
>>> result("Cc1cc(N/N=C/c2ccccc2F)c2ccccc2n1")
"2660 nM (active)"
>>> result("CC1CCCN(c2c3c(nc4ccccc24)CCCC3)C1 (centres undefined)")
"1330 nM (active)"
